Cited source: patent US9958461B2

Give measured EGFR-L858R mean for each item. Keep answers brief.
Tested On: T1, EGFR-L858R (Homo sapiens, UniProt P00533, L858R)
T1 construct: with the advantage of testing full-length integral membrane proteins; (GGGGS)2 linker-Cub (human ubiquitin aa 35-76)-GAL4(1-147)-mNFkB(364-550) (C); expressed in transfected cells
Assay Comment: MaMTH EGFR-interactor screen, lentiviral preys against EGFR-L858R bait (interaction score)
Format: cell-based
Condition Label: MaMTH interaction score of prey with EGFR-L858R bait
Could you respond with only the numeric value?

Prompt: Give the measured EGFR-L858R mean of CRKL (protein, UniProt P46109 1-303, looked up) Crk-like protein: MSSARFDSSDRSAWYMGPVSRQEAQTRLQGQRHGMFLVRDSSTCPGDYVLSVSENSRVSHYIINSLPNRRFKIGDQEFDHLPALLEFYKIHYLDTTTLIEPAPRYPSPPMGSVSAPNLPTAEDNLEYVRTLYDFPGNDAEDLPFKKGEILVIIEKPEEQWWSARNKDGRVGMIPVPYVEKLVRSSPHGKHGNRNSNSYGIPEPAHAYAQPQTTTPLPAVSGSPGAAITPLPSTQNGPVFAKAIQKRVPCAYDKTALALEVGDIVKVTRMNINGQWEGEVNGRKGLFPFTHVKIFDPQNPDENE .
Completion: 13.65

Prompt: So what's the measured EGFR-L858R mean for this one? SLA2 (protein, UniProt Q9H6Q3 2-261, looked up) Src-like-adapter 2: GSLPSRRKSLPSPSLSSSVQGQGPVTMEAERSKATAVALGSFPAGGPAELSLRLGEPLTIVSEDGDWWTVLSEVSGREYNIPSVHVAKVSHGWLYEGLSREKAEELLLLPGNPGGAFLIRESQTRRGSYSLSVRLSRPASWDRIRHYRIHCLDNGWLYISPRLTFPSLQALVDHYSELADDICCLLKEPCVLQRAGPLPGKDIPLPVTVQRTPLNWKELDSSLLFSEAATGEESLLSEGLRESLSFYISLNDEAVSLDDA
Completion: 3.11

Prompt: Item under review: CAV2 (protein, UniProt P51636 1-162, looked up) Caveolin-2: MGLETEKADVQLFMDDDSYSHHSGLEYADPEKFADSDQDRDPHRLNSHLKLGFEDVIAEPVTTHSFDKVWICSHALFEISKYVMYKFLTVFLAIPLAFIAGILFATLSCLHIWILMPFVKTCLMVLPSVQTIWKSVTDVIIAPLCTSVGRCFSSVSLQLSQD . Reported EGFR-L858R mean?
Completion: 6.58
